# ASSAY_NAME: Terminal half life in ICR mouse at 1 mg/kg, iv by LC-MS analysis
# Format: ADME, organism-based
# CONDITION_DESCRIPTION: in vivo, read-out: beta t1/2 (converted)
OUTCOME_MEASURE: half-life (min)
// return numeric value only (unit: min, not printed)

Asked: What does the record list as half-life for `CC(C)(C)c1cc(NC(=O)Nc2ccc(Oc3ccnc(-c4cnn(CCCCCCC(=O)NO)c4)c3)cc2)on1` ?
Given back: 49.2

====

# ASSAY_NAME: MRT (0 to infinity) in ICR mouse at 1 mg/kg, iv by LC-MS analysis
# Type: ADME, organism-based
# CONDITION_DESCRIPTION: in vivo
OUTCOME_MEASURE: MRT inf

Asked: What does the record list as MRT inf for `CC(C)(C)c1cc(NC(=O)Nc2ccc(Oc3ccnc(-c4cnn(CCCCCCC(=O)NO)c4)c3)cc2)on1` ?
Given back: 15.6 min
